- testMethodNotes: Oral bioavailability studies in marmosets (plasma concentration by bioassay)
- Assay type: in vivo
- statedConditions: marmoset, plasma, oral, 10 mg/kg, marmoset, IG at 10 mg/kg, 8 hr; Test Run B; read-out: Plasma Concentrations, Mean ± SE
measurementName: concentration at 8 h (µg/mL)
Just the number in µg/mL, nothing appended.

// sample C#CC[C@H](NC(=O)C(CC(=O)N(C)CCN(C)C)Cc1ccccc1)C(=O)NC(CC1CCCCC1)[C@@H](O)C(O)CC(C)C (relative stereo) , its concentration at 8 h was 2.61

====

- testMethodNotes: Oral bioavailability studies in marmosets (plasma concentration by bioassay)
- Assay type: in vivo
- statedConditions: marmoset, plasma, iv, 1 mg/kg, marmoset, IV at 1 mg/kg, 6 hr; Test Run D table; read-out: Plasma Concentrations, Mean ± SE
measurementName: concentration at 6 h (ng/mL)
Just the number in ng/mL, nothing appended.

// sample C#CC[C@H](NC(=O)C(CC(=O)N(C)CCN(C)C)Cc1ccccc1)C(=O)NC(CC1CCCCC1)[C@@H](O)C(O)CC(C)C (relative stereo) , its concentration at 6 h was 176

====

- testMethodNotes: Oral bioavailability studies in marmosets (plasma concentration by bioassay)
- Type: in vivo
- statedConditions: marmoset, plasma, iv, 1 mg/kg, marmoset, IV at 1 mg/kg, Test Run D, 6 hr, individual animals; read-out: Plasma Concentrations
measurementName: concentration at 6 h (ng/mL)
Just the number in ng/mL, nothing appended.

// sample C#CC[C@H](NC(=O)C(CC(=O)N(C)CCN(C)C)Cc1ccccc1)C(=O)NC(CC1CCCCC1)[C@@H](O)C(O)CC(C)C (relative stereo) , its concentration at 6 h was 95

====

- testMethodNotes: Oral bioavailability studies in dogs (plasma concentration by bioassay)
- Format: in vivo
- statedConditions: dog, plasma, iv, 1 mg/kg, IV at 1 mg/kg, 5 min, individual animals, read-out: Estimated Plasma Concentration
measurementName: concentration at 5 min

// sample C#CC[C@H](NC(=O)C(CC(=O)N(C)CCN(C)C)Cc1ccccc1)C(=O)NC(CC1CCCCC1)[C@@H](O)C(O)CC(C)C (relative stereo) , its concentration at 5 min was 613 ng/mL

====

- testMethodNotes: Oral bioavailability studies in dogs (plasma concentration by bioassay)
- Assay type: in vivo
- statedConditions: dog, plasma, oral, 10 mg/kg, IG at 10 mg/kg, 24 hr, individual animals, read-out: Estimated Plasma Concentration
measurementName: concentration at 24 h (ng/mL)
Just the number in ng/mL, nothing appended.

// sample C#CC[C@H](NC(=O)C(CC(=O)N(C)CCN(C)C)Cc1ccccc1)C(=O)NC(CC1CCCCC1)[C@@H](O)C(O)CC(C)C (relative stereo) , its concentration at 24 h was 6.2

====

- testMethodNotes: Oral bioavailability studies in dogs (plasma concentration by bioassay)
- Assay type: in vivo
- statedConditions: dog, plasma, iv, 1 mg/kg, IV at 1 mg/kg, 15 min, individual animals, read-out: Estimated Plasma Concentration
measurementName: concentration at 15 min (ng/mL)
Just the number in ng/mL, nothing appended.

// sample C#CC[C@H](NC(=O)C(CC(=O)N(C)CCN(C)C)Cc1ccccc1)C(=O)NC(CC1CCCCC1)[C@@H](O)C(O)CC(C)C (relative stereo) , its concentration at 15 min was 218

====

- testMethodNotes: Oral bioavailability studies in dogs (plasma concentration by bioassay)
- Type: in vivo
- statedConditions: dog, plasma, oral, 10 mg/kg, IG at 10 mg/kg, 15 min, read-out: Estimated Plasma Concentration, Mean ± SE
- Experimental: The bioavailability in marmosets and dogs was determined by sampling the blood via the femoral vein at various time points after administering the renin inhibitor compounds of the invention in polyethylene glycol 400 at an intragastric dose of 10 mg/kg or at an intravenous dose of 1 mg/kg. […] Renin inhibitor plasma concentrations were determined by a bioassay. […] The renin activity was determined by a standard angiotensin I radioimmunoassay (New England Nuclear Corp.). […]
measurementName: concentration at 15 min
Give the value; after it, write the unit.

// sample C#CC[C@H](NC(=O)C(CC(=O)N(C)CCN(C)C)Cc1ccccc1)C(=O)NC(CC1CCCCC1)[C@@H](O)C(O)CC(C)C (relative stereo) , its concentration at 15 min was 128 ng/mL

====

- testMethodNotes: Oral bioavailability studies in marmosets (plasma concentration by bioassay)
- Assay type: in vivo
- statedConditions: marmoset, plasma, iv, 1 mg/kg, marmoset, IV at 1 mg/kg, 2 min; Test Run D table; read-out: Plasma Concentrations, Mean ± SE
measurementName: concentration at 2 min (ng/mL)
Just the number in ng/mL, nothing appended.

// sample C#CC[C@H](NC(=O)C(CC(=O)N(C)CCN(C)C)Cc1ccccc1)C(=O)NC(CC1CCCCC1)[C@@H](O)C(O)CC(C)C (relative stereo) [Example 1] , its concentration at 2 min was 11600

====

- testMethodNotes: Oral bioavailability studies in dogs (plasma concentration by bioassay)
- Type: in vivo
- statedConditions: dog, plasma, oral, 10 mg/kg, IG at 10 mg/kg, 24 hr, read-out: Estimated Plasma Concentration, Mean ± SE
measurementName: concentration at 24 h (ng/mL)
Just the number in ng/mL, nothing appended.

// sample C#CC[C@H](NC(=O)C(CC(=O)N(C)CCN(C)C)Cc1ccccc1)C(=O)NC(CC1CCCCC1)[C@@H](O)C(O)CC(C)C (relative stereo) , its concentration at 24 h was 7.5

====

- testMethodNotes: Oral bioavailability studies in marmosets (plasma concentration by bioassay)
- Type: in vivo
- statedConditions: marmoset, plasma, oral, 10 mg/kg, marmoset, IG at 10 mg/kg, 30 min; Test Run B; read-out: Plasma Concentrations, Mean ± SE
measurementName: concentration at 30 min (ng/mL)
Just the number in ng/mL, nothing appended.

// sample C#CC[C@H](NC(=O)C(CC(=O)N(C)CCN(C)C)Cc1ccccc1)C(=O)NC(CC1CCCCC1)[C@@H](O)C(O)CC(C)C (relative stereo) , its concentration at 30 min was 4990

====

- testMethodNotes: Oral bioavailability studies in dogs (plasma concentration by bioassay)
- Format: in vivo
- statedConditions: dog, plasma, iv, 1 mg/kg, IV at 1 mg/kg, 2 min, individual animals, read-out: Estimated Plasma Concentration
- Experimental: The bioavailability in marmosets and dogs was determined by sampling the blood via the femoral vein at various time points after administering the renin inhibitor compounds of the invention in polyethylene glycol 400 at an intragastric dose of 10 mg/kg or at an intravenous dose of 1 mg/kg. […] Renin inhibitor plasma concentrations were determined by a bioassay. […] The renin activity was determined by a standard angiotensin I radioimmunoassay (New England Nuclear Corp.). […]
measurementName: concentration at 2 min (ng/mL)
Just the number in ng/mL, nothing appended.

// sample C#CC[C@H](NC(=O)C(CC(=O)N(C)CCN(C)C)Cc1ccccc1)C(=O)NC(CC1CCCCC1)[C@@H](O)C(O)CC(C)C (relative stereo) , its concentration at 2 min was 2420

====

- testMethodNotes: Oral bioavailability studies in dogs (plasma concentration by bioassay)
- Assay type: in vivo
- statedConditions: dog, plasma, dogs; read-out: volume of distribution
measurementName: Vd (L/kg)
Just the number in L/kg, nothing appended.

// sample C#CC[C@H](NC(=O)C(CC(=O)N(C)CCN(C)C)Cc1ccccc1)C(=O)NC(CC1CCCCC1)[C@@H](O)C(O)CC(C)C (relative stereo) [Example 1] , its Vd was 9.5

====

- testMethodNotes: Oral bioavailability studies in marmosets (plasma concentration by bioassay)
- Type: in vivo
- statedConditions: marmoset, plasma, oral, 10 mg/kg, marmoset, IG at 10 mg/kg, 5 hr; Test Run B; read-out: Plasma Concentrations, Mean ± SE
measurementName: concentration at 5 h (ng/mL)
Just the number in ng/mL, nothing appended.

// sample C#CC[C@H](NC(=O)C(CC(=O)N(C)CCN(C)C)Cc1ccccc1)C(=O)NC(CC1CCCCC1)[C@@H](O)C(O)CC(C)C (relative stereo) [Example 1] , its concentration at 5 h was 2460

====

- testMethodNotes: Oral bioavailability studies in marmosets (plasma concentration by bioassay)
- Assay type: in vivo
- statedConditions: marmoset, plasma, iv, 1 mg/kg, marmoset, IV at 1 mg/kg, Test Run D, 2 min, individual animals; read-out: Plasma Concentrations
measurementName: concentration at 2 min (ng/mL)
Just the number in ng/mL, nothing appended.

// sample C#CC[C@H](NC(=O)C(CC(=O)N(C)CCN(C)C)Cc1ccccc1)C(=O)NC(CC1CCCCC1)[C@@H](O)C(O)CC(C)C (relative stereo) , its concentration at 2 min was 4200

====

- testMethodNotes: Oral bioavailability studies in dogs (plasma concentration by bioassay)
- Assay type: in vivo
- statedConditions: dog, plasma, individual animals, read-out: t1/2 (converted)
measurementName: half-life (h)
Just the number in h, nothing appended.

// sample C#CC[C@H](NC(=O)C(CC(=O)N(C)CCN(C)C)Cc1ccccc1)C(=O)NC(CC1CCCCC1)[C@@H](O)C(O)CC(C)C (relative stereo) [Example 1] , its half-life was 5.3
